Biological target: UniProt:Q72547
Assay: Cytotoxic concentration which reduces the cell viability of HIV-1 LAI infected T4 lymphoblastoid CEM-SS cells by 50%
Assay type: functional, cell-based
Recorded CC50 values for a group of compounds are listed next.

Take a look at these entries with their results.
CCc1c(C)nc(O)c(NC(=O)CCCCCCCCC(=O)OC)c1Cc1cc(C)cc(C)c1 :: > 10 µM
[N-]=[N+]=NC1CC(n2cc(CCC(=O)NCCCCN)c(=O)[nH]c2=O)OC1CO (stereo not given) :: > 100 µM
COC(=O)CCc1cn(C2CC(N=[N+]=[N-])C(CO)O2)c(=O)[nH]c1=O (stereo not given) :: > 100 µM
CCc1c(C)nc(O)c(NC(=O)CCCCCCCCCNC(=O)OC(C)(C)C)c1Cc1cc(C)cc(C)c1 :: > 10 µM

Let's switch to this compound now.
# lookup: CC50 of [N-]=[N+]=NC1CC(n2cc(CCC(=O)NCCCCCCCCCCN)c(=O)[nH]c2=O)OC1CO (stereo not given)
38 µM
